Reference source: patent US20220282217A1

Entries annotated with measured IC50
- test-target: HLA-A02.01 (human)
- method-description: competition with radiolabeled reference peptide, purified MHC I
- condition-summary: remark: other sources report otherwise
measured-parameter: IC50 (nM)

>>> data_value("NQRPILTII")
9610
>>> data_value("TQLARFFPI")
19
>>> data_value("MLLRLNLRKM")
2510
>>> data_value("MALNSEALSV")
129
>>> data_value("CMGGMNWRPI")
346
>>> data_value("MNWRPILTI")
516
>>> data_value("SMNRRPILTI")
1200
>>> data_value("CMGSMNRRPI")
1990
